Molecular target: P7, fluorescein-labelled proline-rich peptide from the SOS1 proline-rich domain (human, UniProt Q07889, fluorescein (FITC) label, position not stated)
Assay: FP
pKd: −log10 of the molar value.
quantity.kind: pKd

[A] ARHGEF30 (Obscurin/OBSCN) SH3 domain, GST cleaved (domain or fragment) EIFDIYVVTADYLPLGAEQDAITLREGQYVEVLDAAHPLRWLVRTKPTKSSPSRQGWVSPAYLDRRLK
[B] DLG2 SH3 domain, GST cleaved (domain or fragment) KRSLYVRAMFDYDKSKDSGLPSQGLSFKYGDILHVINASDDEWWQARRVMLEGDSEEMGVIPSKRRVERKE
Identify the item whose pKd is the smaller number: A or B Identify your pick by its label.
B
(B: 4.23, A: 5.05)

[P] BIN1 SH3 domain, GST cleaved (domain or fragment) GFMFKVQAQHDYTATDTDELQLKAGDVVLVIPFQNPEEQDEGWLMGVKESDWNQHKELEKCRGVFPENFTERVP
[Q] ABL2 SH3 domain, GST cleaved (domain or fragment) SDPNLFVALYDFVASGDNTLSITKGEKLRVLGYNQNGEWSEVRSKNGQGWVPSNYITPVNS
Identify the item whose pKd is the smaller number: P or Q Identify your pick by its label.
Q
